Tested on: P. aeruginosa ATCC27853 LMG16217
Test: Anti-bacterial activity, Bioscreen C growth curve: P. aeruginosa
Format: cell-based, Pseudomonas aeruginosa
Details: Pseudomonas aeruginosa; 25 PPM; 35° C., 16 hours; negative control = 100; read-out: % of growth at 25 PPM compared to the negative control, P. aeruginosa ATCC27853 LMG16217
hey, just use condition met if measured activity at 25 ppm is less than 80%, otherwise condition not met

Reference set (4 entries):
molecule | label
O=C1CC/C=C/CCC(=O)O[C@H]2[C@H](OCc3ccccc3)[C@@H](OCc3ccccc3)[C@H](Sc3ccccc3)O[C@@H]2CO1 | condition not met
CO[C@@H]1[C@@H](OC)[C@H](Sc2ccccc2)O[C@@H]2COCC=CCO[C@@H]12 | condition not met
CO[C@@H]1[C@@H](OC)[C@H](Sc2ccccc2)O[C@@H]2COC(=O)CCCC/C=C/CCCCC(=O)O[C@@H]12 | condition met
CO[C@@H]1[C@@H](OC)[C@H](c2ccccc2)O[C@@H]2COC(=O)CC/C=C/CCC(=O)O[C@@H]12 | condition met

query: Does this compound meet the criterion activity at 25 ppm < 80%? CO[C@@H]1[C@@H](OC)[C@H](O)[C@@H](CO)O[C@H]1Cc1ccccc1
result: condition not met

* * *

System: HSV-2 (G)
Test: Anti-viral activity: HSV-2-induced cytopathicity in human embryo fibroblast E6SM cell cultures
Type: cell-based, herpes simplex virus (HSV)
Settings: Human alphaherpesvirus 2, 50%
parameter: EC50

molecule | target-or-system | EC50
O[C@@H]1[C@@H](O)[C@H](Sc2ccccc2)O[C@@H]2CO[C@@H](c3ccccc3)O[C@@H]12 | HSV-2 (G) | > 80 µg/mL
CO[C@@H]1[C@@H](OC)[C@H](Cc2ccccc2)O[C@@H]2CO[C@@H](c3ccccc3)O[C@@H]12 | HSV-2 (G) | > 80 µg/mL
CO[C@@H]1[C@@H](OC)[C@H](Sc2ccccc2)O[C@@H]2CO[C@@H](c3ccccc3)O[C@@H]12 | HSV-2 (G) | > 3.2 µg/mL

Now consider the entry below.
query: Any idea what EC50 came out for CO[C@@H]1[C@@H](OC)[C@H](c2ccccc2)O[C@@H]2CO[C@@H](c3ccccc3)O[C@@H]12 on HSV-2 (G)?
result: > 80 µg/mL

* * *

Reported activity at 25 ppm values follow for various compounds
System: E. faecalis ATTC29212 LMG 8222
Test: Anti-bacterial activity, Bioscreen C growth curve: E. faecalis
Type: cell-based
Settings: Enterococcus faecalis, LMG8222, 35° C., 16 hours, negative control = 100, read-out: % of growth at 25 PPM compared to the negative control, E. faecalis ATTC29212 LMG 8222
# unit: % | format: bare number

query: Need activity at 25 ppm of CO[C@@H]1[C@@H](OC)[C@H](c2ccccc2)O[C@@H]2COC(=O)CC/C=C/CCC(=O)O[C@@H]12 , thanks.
result: 94.9

query: Need activity at 25 ppm of CO[C@@H]1[C@@H](OC)[C@H](O)[C@@H](CO)O[C@H]1Cc1ccccc1 , thanks.
result: 98.4

query: Need activity at 25 ppm of CO[C@@H]1[C@@H](OC)[C@H](Sc2ccccc2)O[C@@H]2COC(=O)CC/C=C/CCC(=O)O[C@@H]12 , thanks.
result: 94.9

query: Need activity at 25 ppm of CO[C@@H]1[C@@H](OC)[C@H](Cc2ccccc2)O[C@@H]2COC(=O)CCCCCCCCC=CCCCCCCCCC(=O)O[C@@H]12 [KPE00001031E] , thanks.
result: 85.5

query: Need activity at 25 ppm of O=C1CC/C=C/CCC(=O)O[C@H]2[C@H](OCc3ccccc3)[C@@H](OCc3ccccc3)[C@H](Sc3ccccc3)O[C@@H]2CO1 , thanks.
result: 97.6

query: Need activity at 25 ppm of CO[C@@H]1[C@@H](OC)[C@H](Sc2ccccc2)O[C@@H]2CNC(=O)CCC=CCCC(=O)O[C@@H]12 , thanks.
result: 68.2

query: Need activity at 25 ppm of CO[C@@H]1[C@@H](OC)[C@H](O)[C@@H](CO)O[C@H]1Sc1ccccc1 , thanks.
result: 89

query: Need activity at 25 ppm of CO[C@H]1[C@@H]2OC(=O)CC/C=C/CCC(=O)OC[C@H]2OC[C@@H]1OC , thanks.
result: 92.5

query: Need activity at 25 ppm of CO[C@H]1[C@H](OC)[C@H](OC)COC/C=C/COC[C@H]2OC[C@H](OC)[C@@H](OC)[C@@H]2OC(=O)NC[C@@H]1OC , thanks.
result: 111

query: Need activity at 25 ppm of CO[C@@H]1[C@@H](OC)[C@H](Cc2ccccc2)O[C@@H]2CO[C@@H](c3ccccc3)O[C@@H]12 , thanks.
result: 104

query: Need activity at 25 ppm of CO[C@@H]1[C@@H](OC)[C@H](c2ccccc2)O[C@@H]2COC(=O)CCC3OC3CCC(=O)O[C@@H]12 (stereo partly drawn) , thanks.
result: 94.1

query: Need activity at 25 ppm of CO[C@@H]1[C@@H](OC)[C@H](Sc2ccccc2)O[C@@H]2COCC=CCO[C@@H]12 , thanks.
result: 95

query: Need activity at 25 ppm of CO[C@@H]1[C@@H](OC)[C@H](Sc2ccccc2)O[C@@H]2COC(=O)CCCC/C=C/CCCCC(=O)O[C@@H]12 , thanks.
result: 76.5

* * *

Test system: P. aeruginosa ATCC27853 LMG16217
Assay: Anti-bacterial activity, Bioscreen C growth curve: P. aeruginosa
Type: cell-based, Pseudomonas aeruginosa
Details: Pseudomonas aeruginosa; 25 PPM; 35° C., 16 hours; negative control = 100; read-out: % of growth at 25 PPM compared to the negative control, P. aeruginosa ATCC27853 LMG16217
parameter: activity at 25 ppm (%)
# unit: % | format: bare number

Recorded activity at 25 ppm, per entry:
compound | activity at 25 ppm (%)
CO[C@@H]1[C@@H](OC)[C@H](c2ccccc2)O[C@@H]2COC(=O)CCC3OC3CCC(=O)O[C@@H]12 (some centres unmarked) | 91.3
CO[C@@H]1[C@@H](OC)[C@H](c2ccccc2)O[C@@H]2CO[C@@H](c3ccccc3)O[C@@H]12 | 90.4
CO[C@@H]1[C@@H](OC)[C@H](O)[C@@H](CO)O[C@H]1Sc1ccccc1 | 85
CO[C@@H]1[C@@H](OC)[C@H](Sc2ccccc2)O[C@@H]2CNC(=O)CC/C=C/CCCO[C@@H]12 | 94.7
CO[C@@H]1[C@@H](OC)[C@H](Sc2ccccc2)O[C@@H]2CNC(=O)CCC=CCCC(=O)O[C@@H]12 | 83.3
CO[C@H]1[C@@H]2OC(=O)CCCCCCC(=O)OC[C@H]2OC[C@@H]1OC | 80.7

query: Need activity at 25 ppm of CO[C@@H]1[C@@H](OC)[C@H](Cc2ccccc2)O[C@@H]2CO[C@@H](c3ccccc3)O[C@@H]12 , thanks.
result: 105

query: Need activity at 25 ppm of CO[C@@H]1[C@@H](OC)[C@H](Sc2ccccc2)O[C@@H]2COCCC/C=C\CCCO[C@@H]12 , thanks.
result: 67.6

* * *

System: HSV-2 (G)
Assay: Anti-viral activity: HSV-2-induced cytopathicity in human embryo fibroblast E6SM cell cultures
Type: cell-based, herpes simplex virus (HSV)
Settings: Human alphaherpesvirus 2, 50%
parameter: EC50

Recorded EC50, per entry:
compound | parameter | experimental-result
CO[C@@H]1[C@@H](OC)[C@H](Sc2ccccc2)O[C@@H]2COC(=O)CC/C=C/CCC(=O)O[C@@H]12 | EC50 | > 16 µg/mL
CO[C@@H]1[C@@H](OC)[C@H](Cc2ccccc2)O[C@@H]2COC(=O)CC/C=C/CCC(=O)O[C@@H]12 | EC50 | 80 µg/mL
CCO[C@@H]1[C@@H](OCC)[C@H](Sc2ccccc2)O[C@@H]2CO[C@@H](c3ccccc3)O[C@@H]12 | EC50 | > 3.2 µg/mL
CO[C@@H]1[C@@H](OC)[C@H](Sc2ccccc2)O[C@@H]2COC(=O)CCCC/C=C\CCCCC(=O)O[C@@H]12 | EC50 | > 3.2 µg/mL
CO[C@@H]1[C@@H](OC)[C@H](Sc2ccccc2)O[C@@H]2COCC=CCO[C@@H]12 | EC50 | 240 µg/mL

query: Need EC50 of CO[C@@H]1[C@@H](OC)[C@H](Sc2ccccc2)O[C@@H]2COC(=O)CCCC/C=C/CCCCC(=O)O[C@@H]12 , thanks.
result: > 3.2 µg/mL

query: Need EC50 of c1ccc(CO[C@@H]2[C@@H](OCc3ccccc3)[C@H](Sc3ccccc3)O[C@@H]3CO[C@@H](c4ccccc4)O[C@@H]23)cc1 , thanks.
result: > 3.2 µg/mL

query: Need EC50 of CO[C@@H]1[C@@H](OC)[C@H](Cc2ccccc2)O[C@@H]2COC(=O)CCCCCCCCC=CCCCCCCCCC(=O)O[C@@H]12 [KPE00001031E] , thanks.
result: > 400 µg/mL

query: Need EC50 of CO[C@@H]1[C@@H](OC)[C@H](c2ccccc2)O[C@@H]2COC(=O)CC/C=C/CCC(=O)O[C@@H]12 , thanks.
result: > 16 µg/mL
